tgt: human 11βHSD1 (Homo sapiens, UniProt P28845)
Construct: stably transfected with a construct containing full-length human 11βHSD1 enzyme (in pCMVHyg)
Sequence (P28845 whole entry): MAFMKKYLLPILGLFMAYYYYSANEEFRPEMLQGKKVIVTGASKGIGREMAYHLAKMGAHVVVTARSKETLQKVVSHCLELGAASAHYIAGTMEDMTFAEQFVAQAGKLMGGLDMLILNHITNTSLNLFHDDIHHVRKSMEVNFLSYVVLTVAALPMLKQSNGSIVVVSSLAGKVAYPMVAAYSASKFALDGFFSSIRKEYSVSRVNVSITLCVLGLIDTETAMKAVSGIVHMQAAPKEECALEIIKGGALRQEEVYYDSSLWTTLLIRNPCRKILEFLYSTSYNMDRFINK
assay: HeLa GRE4-βGal/11βHSD1 cell reporter assay (cortisone to cortisol conversion, β-galactosidase readout)
assay.setup: HeLa GRE4-βGal/11βHSD1 cells, cortisone 1 μM, overnight incubation, absorbance at 570 nm
pIC50 reference
FYI, pIC50 means -log10 of a concentration in mol per litre.

Worked examples, 2 molecules total:
- molecule: "O=C(c1ccc(F)cc1)C1CCN(C(=O)c2ccccc2Cl)C1 (stereo not drawn) [Example 7]"
  pIC50: 7.15
- molecule: "O=C(c1ccc(F)cc1)C1CCN(C(=O)c2ccc(Cl)cc2)C1 (stereo not drawn) [Example 5]"
  pIC50: 7.12

Identify measured pIC50 corresponding to O=C(c1ccc(F)cc1)C1CCN(S(=O)(=O)c2ccc(F)cc2)C1 (stereo not drawn) [Example 18] 6.35

This collection of values is drawn from patent US20070219266A1.
